- System: 786-0
- Experiment notes: Growth inhibition of human 786-0 cells incubated for 48 hrs by sulforhodamine B assay
- Type: functional, cell-based
- Condition label: 786-0, 48 h, read-out: pGI50 (converted)
Reported values of GI50 for individual entries
Hi! Could you send only the number? It should be in µM, unit omitted.

QUERY: Specify reported GI50 for the compound shown: O=C(Nc1cccc(-n2cc(-c3ccncc3)c(-c3cc(O)cc(Cl)c3)n2)c1)c1cc(C(F)(F)F)cc(C(F)(F)F)c1
RESULT: 3.09

QUERY: Check the records and state GI50 for O=C(Nc1cccc(-n2cc(-c3ccncc3)c(-c3cc(O)cc(Cl)c3)n2)c1)Nc1ccc(Cl)c(Cl)c1
RESULT: 1.48

QUERY: Name the recorded GI50 of the item COc1cc(Cl)cc(-c2nn(-c3cccc(NC(=O)c4ccc(N5CCOCC5)c(C(F)(F)F)c4)c3)cc2-c2ccncc2)c1 in your answer.
RESULT: 3.24

QUERY: Consider the compound COc1cc(Cl)cc(-c2nn(-c3cccc(NC(=O)Nc4cc(C(F)(F)F)cc(C(F)(F)F)c4)c3)cc2-c2ccncc2)c1 . State its measured GI50.
RESULT: 0.562

* * *

- System: SK-MEL-28
- Experiment notes: Growth inhibition of human SK-MEL-28 cells assessed as cell growth at 1 uM incubated for 48 hrs by sulforhodamine B assay relative to control
- Type: functional
- Condition label: SK-MEL-28, 48 h, read-out: Activity
Listed next: entries and their corresponding growth at 1 µM.
Dear colleague, please return just the value in %, with no unit written.

QUERY: Provide only the value of recorded growth at 1 µM for O=C(Nc1cccc(-n2cc(-c3ccncc3)c(-c3cc(O)cc(Cl)c3)n2)c1)c1cc(C(F)(F)F)cc(C(F)(F)F)c1
RESULT: 55

QUERY: Report growth at 1 µM for O=C(Nc1cccc(-n2cc(-c3ccncc3)c(-c3cc(O)cc(Cl)c3)n2)c1)Nc1ccc(Cl)c(Cl)c1
RESULT: 90

QUERY: State its growth at 1 µM: O=C(Nc1cccc(-n2cc(-c3ccncc3)c(-c3cc(O)cc(Cl)c3)n2)c1)c1ccc(N2CCOCC2)c(C(F)(F)F)c1
RESULT: 44

QUERY: Return the recorded growth at 1 µM value; entry: COc1cc(Cl)cc(-c2nn(-c3cccc(NC(=O)Nc4cc(C(F)(F)F)cc(C(F)(F)F)c4)c3)cc2-c2ccncc2)c1
RESULT: 46

QUERY: Recall and state the measured growth at 1 µM for COc1cc(Cl)cc(-c2nn(-c3cccc(NC(=O)Nc4ccc(Cl)c(Cl)c4)c3)cc2-c2ccncc2)c1 .
RESULT: 87

* * *

- System: UO-31
- Experiment notes: Growth inhibition of human UO31 cells incubated for 48 hrs by sulforhodamine B assay
- Assay type: functional, cell-based
- Condition label: UO-31, 48 h, read-out: pLC50 (the source's name) (converted)
Readout kind: CC50

{"Cpd smiles": "O=C(Nc1cccc(-n2cc(-c3ccncc3)c(-c3cc(O)cc(Cl)c3)n2)c1)Nc1ccc(Cl)c(C(F)(F)F)c1", "CC50": "34.7 µM"}

QUERY: Supply measured CC50 of O=C(Nc1cccc(-n2cc(-c3ccncc3)c(-c3cc(O)cc(Cl)c3)n2)c1)c1cc(C(F)(F)F)cc(C(F)(F)F)c1 in your reply.
RESULT: > 100 µM

QUERY: Report CC50 for O=C(Nc1cccc(-n2cc(-c3ccncc3)c(-c3cc(O)cc(Cl)c3)n2)c1)c1ccc(N2CCOCC2)c(C(F)(F)F)c1
RESULT: > 100 µM

QUERY: Indicate the recorded CC50 value for this compound: COc1cc(Cl)cc(-c2nn(-c3cccc(NC(=O)c4cccc(C(F)(F)F)c4)c3)cc2-c2ccncc2)c1
RESULT: > 100 µM
